system.under.test: T1, recombinant human TfR1 (transferrin receptor protein 1) (human, UniProt P02786 89-760)
T1 construct: Recombinant protein in SPR and ELISA; they were assigned to this molecule; also called hTfR1; huTfR1
experiment: Table 14, unconjugated Fab, d0; method not named (values equal ELISA row of Table 13)
Below, each entry is listed alongside its reported Binding affinity.
A number alone suffices; assume nM.

Recorded Binding affinity, per entry:
>>> assay_result("humanized anti-TfR Fab 5H12 VH5 (C33D)/Vκ4 (Fab, V domains shown, also called 5H12 (VH5-C33D/Vk4)) VH: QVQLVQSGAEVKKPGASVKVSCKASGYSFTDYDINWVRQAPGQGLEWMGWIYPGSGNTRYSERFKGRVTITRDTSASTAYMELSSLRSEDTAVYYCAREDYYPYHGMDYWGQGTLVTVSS VL: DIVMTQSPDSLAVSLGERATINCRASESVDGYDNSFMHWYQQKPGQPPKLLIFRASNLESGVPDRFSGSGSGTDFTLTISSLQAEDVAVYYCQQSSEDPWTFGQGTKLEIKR")
6
>>> assay_result("humanized anti-TfR Fab 5H12 VH5 (C33Y)/Vκ4 (Fab, V domains shown, also called 5H12 (VH5-C33Y/Vk4)) VH: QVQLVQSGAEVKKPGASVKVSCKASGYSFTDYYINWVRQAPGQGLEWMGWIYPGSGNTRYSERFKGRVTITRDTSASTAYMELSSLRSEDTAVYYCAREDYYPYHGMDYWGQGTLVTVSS VL: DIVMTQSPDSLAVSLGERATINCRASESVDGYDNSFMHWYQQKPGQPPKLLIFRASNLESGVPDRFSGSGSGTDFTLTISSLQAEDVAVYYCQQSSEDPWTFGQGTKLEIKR")
2.8

With those in mind, consider the next binder.
Task: Consider the binder humanized anti-TfR Fab 3M12 VH4/Vκ2 (Fab, V domains shown, also called 3M12 (VH4/Vk2)) VH: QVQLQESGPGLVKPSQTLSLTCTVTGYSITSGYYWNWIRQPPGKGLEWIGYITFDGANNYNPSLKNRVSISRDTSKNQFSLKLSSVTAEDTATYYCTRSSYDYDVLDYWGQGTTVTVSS VL: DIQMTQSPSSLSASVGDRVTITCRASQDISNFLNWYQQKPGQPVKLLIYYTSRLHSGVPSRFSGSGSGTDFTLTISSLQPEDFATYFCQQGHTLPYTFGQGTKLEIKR . State its measured Binding affinity.
Result: 0.4
